- Test Target: ETA Receptor (Rattus norvegicus, UniProt P26684)
- Construct: endogenous in cells; host or cells: MMQ rat pituitary cells (membranes)
- Sequence (P26684 21-426): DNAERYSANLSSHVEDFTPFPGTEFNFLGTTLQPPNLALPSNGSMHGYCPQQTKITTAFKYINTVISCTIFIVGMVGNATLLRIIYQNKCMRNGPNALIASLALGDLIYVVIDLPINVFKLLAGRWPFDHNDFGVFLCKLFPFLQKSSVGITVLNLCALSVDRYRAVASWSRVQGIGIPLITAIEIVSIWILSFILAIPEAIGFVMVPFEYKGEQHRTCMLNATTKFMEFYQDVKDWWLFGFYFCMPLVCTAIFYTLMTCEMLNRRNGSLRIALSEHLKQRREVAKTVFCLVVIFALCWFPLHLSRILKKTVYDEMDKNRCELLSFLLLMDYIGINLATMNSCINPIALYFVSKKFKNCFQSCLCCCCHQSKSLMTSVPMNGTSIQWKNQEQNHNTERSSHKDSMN
- Assay: [125I]ET-1 binding to membranes from MMQ cells (ETA receptor binding assay, Table 4)
- Particulars: test compound at 1 μM; 0.1 nM [125I]ET-1, MMQ cell membranes, 4 hours at 25° C.
Categories are assigned from the measured % Inhibition of ETA at 1 μM using these intervals: lower level: < 80%; middle level: ≥ 80% and < 90%; upper level: ≥ 90%

Compound	Category
CCCCCC1C(C(=O)O)C(c2ccc3c(c2)OCO3)CN1CCN(CCC)S(=O)(=O)CCC (stereo not shown) [Example 93C]	lower level
CCCN(CCN1CC(c2ccc3c(c2)OCO3)C(C(=O)O)C1c1ccc(OC)cc1)S(=O)(=O)CC (stereo not shown)	upper level

Exercise: Input CCCN(C)C(=O)CN1CC(c2cccc(OC)c2)C(C(=O)O)C1c1ccc(OC)cc1 (stereo not shown) ; output its category
Key: lower level

Exercise: Lab note: which band did CCCN(C)C(=O)CN1CC(c2ccc3c(c2)CCO3)C(C(=O)O)C1c1ccc(OC)cc1 (stereo not shown) land in?
Key: middle level

Exercise: Would you mind sorting COc1ccc(C2C(C(=O)O)C(c3ccc4c(c3)OCO4)CN2CC(=O)N(CCC(C)C)CCC(C)C)cc1 (stereo not shown) into the appropriate category?
Key: upper level

Exercise: Field: class (% Inhibition of ETA at 1 μM) — entry: CCCN(C)C(=O)CN1CC(c2ccc3c(c2)OCO3)C(C(=O)O)C1c1ccc(OC)cc1 (stereo not shown)
Key: upper level

Exercise: For the record CCCN(C)C(=O)CN1CC(c2ccc3cc[nH]c3c2)C(C(=O)O)C1c1ccc(OC)cc1 (stereo not shown) , report the class its % Inhibition of ETA at 1 μM corresponds to.
Key: lower level

Exercise: Which bin, given its % Inhibition of ETA at 1 μM, does CCCN(CC1CC1)C(=O)CN1CC(c2ccc3c(c2)OCO3)C(C(=O)O)C1c1ccc(OC)cc1 (stereo not shown) occupy?
Key: upper level

Exercise: Exam item: assign CCCN(C)C(=O)CN1CC(c2ccc3ccccc3c2)C(C(=O)O)C1c1ccc(OC)cc1 (stereo not shown) to the correct category.
Key: lower level

====

Here the recorded IC50 is given for each entry.
- Test Target: ETA receptor in MMQ cells (rET-A) (Rattus norvegicus, UniProt P26684)
- Construct: endogenous in cells; host or cells: MMQ rat pituitary cells (membranes)
- Assay: ETA/ETB selectivity: (125I)ET-1 competition binding, ETA assay in MMQ cell membranes (rET-A)
Your answer should be a plain number; it is taken to be in nM.

Solved entries:
Compound	IC50 / nM
CCCCN(CCCC)C(=O)CN1CC(c2ccc3c(c2)OCO3)C(C(=O)O)C1CC(C)CCC (stereo not drawn)	3
CCCCN(CCCC)C(=O)CN1CC(c2ccc3c(c2)OCO3)C(C(=O)O)C1CCN1CCCC1=O (stereo not drawn)	0.42

Exercise: Value lookup for IC50; key = CCCCN(CCCC)C(=O)CN1CC(c2ccc3c(c2)OCO3)C(C(=O)O)C1CCc1ccccn1 (stereo not drawn)
Key: 0.38
